- study.target: T1, human melanocortin 1 receptor (human, UniProt Q01726 1-317)
- T1 construct: whole, on cells; also called hMC1R; hMC1 receptor
- T1 sequence (Q01726 whole entry): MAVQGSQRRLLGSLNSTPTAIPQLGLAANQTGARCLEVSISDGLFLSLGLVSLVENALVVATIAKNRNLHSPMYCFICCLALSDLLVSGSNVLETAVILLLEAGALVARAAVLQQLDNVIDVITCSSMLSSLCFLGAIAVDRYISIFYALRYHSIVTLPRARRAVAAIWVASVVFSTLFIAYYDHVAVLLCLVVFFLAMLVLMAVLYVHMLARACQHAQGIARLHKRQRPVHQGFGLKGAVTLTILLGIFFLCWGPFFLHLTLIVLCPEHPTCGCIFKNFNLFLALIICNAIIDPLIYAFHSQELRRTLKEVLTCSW
- method.summary: competition with [125I]-NDP-alpha-MSH on whole HEK293 cells expressing the receptor
quantity.measured: IC50

[[record]]
binder = "LDHXRWK (N-terminal acetyl; Nle at 4; D-Nal(2') (nal) at 7; Asp5-Lys10 side-chain lactam ring; C-terminal amide; backbone N-methyl on His6, nal7, Arg8, Trp9 and Lys10 (alpha-MSH numbering 4-10), NO; 32; No. 32 to the hMC1R antagonist)"
quantity_measured = "IC50"
result = "68 nM"


Data credit: patent EP3177737B1
